The following molecules are listed with their measured IC50 values.
system: MCF7 breast carcinoma cells; assay: MTS assay; type: cell-based; settings: Homo sapiens, concentration giving 50% viable cell number
Metric: IC50 (nM)

- Cc1c[n+]([O-])c(Cn2nc(C)c3c(Cl)nc(N)nc32)c(C)c1Br: 1000
- Cc1cnc(Cn2ncc3c(Cl)nc(N)nc32)c(C)c1Br: 1000
- COc1c(C)cnc(Cn2nc(C)c3c(Cl)nc(N)nc32)c1C: 100
